System: NCI-H460
Assay: in vitro non-small cell lung cancer cell growth inhibition (NCI screen)
Readout kind: cytotoxicity log GI50 (M)

1. CCC(CC)n1c(C)nc2c1C(=O)c1ccccc1C2=O; -4.68
2. Cc1nc2c(n1Cc1ccc(Cl)cc1)C(=O)c1ccccc1C2=O; -5.76
3. COc1ccc(Cn2c(C)nc3c2C(=O)c2ccccc2C3=O)cc1; -5.62

====

System: NCI-H460
Experiment: in vitro non-small cell lung cancer cell growth inhibition (NCI screen)
Measured cytotoxicity log GI50, listed per entry.
Readout kind: cytotoxicity log GI50 (M)

1. COC(=O)CCCC(=O)NC1=C(Nc2ccc(OC)cc2)C(=O)c2ccccc2C1=O [Compound 53]; -4.80
2. Cc1nc2c(n1CC(C)C)C(=O)c1ccccc1C2=O [Compound 7]; -4.63
3. Cc1nc2c(n1CCCl)C(=O)c1ccccc1C2=O [Compound 21]; -4.83
4. O=C(Cc1ccccc1F)NC1=C(Cl)C(=O)c2ccccc2C1=O [Compound 2i]; -6.15
5. Cc1nc2c(n1Cc1ccc(F)cc1)C(=O)c1ccccc1C2=O [Compound 19]; -5.39
6. COC(=O)CCC(=O)NC1=C(NCc2ccccc2)C(=O)c2ccccc2C1=O [Compound 55]; -4.74
7. Cc1nc2c(n1CCC(C)C)C(=O)c1ccccc1C2=O [Compound 11]; -5.22
8. CCC(C)Cn1c(C)nc2c1C(=O)c1ccccc1C2=O (stereo not drawn) [Compound 13]; -4.83
9. Cc1nc2c(n1CC(C)(C)C)C(=O)c1ccccc1C2=O [Compound 14]; -4.23

====

Test system: OVCAR-3
Assay: in vitro ovarian cancer cell growth inhibition (NCI screen)
Measured cytotoxicity log GI50, listed per entry.
Readout kind: cytotoxicity log GI50 (M)

1) COc1ccc(-n2c(CCCC(=O)O)nc3c2C(=O)c2ccccc2C3=O)cc1 [Compound 59]; -4.48
2) O=C(O)CCCc1nc2c(n1-c1ccccc1)C(=O)c1ccccc1C2=O [Compound 58]; -4.47
3) CCCC(=O)NC1=C(NCC)C(=O)c2ccccc2C1=O [Compound 46]; -4.47
4) CCn1c(C)nc2c1C(=O)c1ccccc1C2=O [Compound 5]; -7.30
5) Cc1nc2c(n1CCN(C)C)C(=O)c1ccccc1C2=O [Compound 15]; -5.15
6) COC(=O)CCC(=O)NC1=C(Nc2ccc(OC)cc2)C(=O)c2ccccc2C1=O [Compound 56]; -5.48
7) COc1ccc(C(=O)NC2=C(Cl)C(=O)c3ccccc3C2=O)cc1 [Compound 2g]; -5.79
8) CCCc1nc2c(n1CC)C(=O)c1ccccc1C2=O [Compound 24]; -4.49
9) Cc1nc2c(n1CC(C)(C)C)C(=O)c1ccccc1C2=O [Compound 14]; -4.18
10) O=C(NC1=C(Cl)C(=O)c2ccccc2C1=O)c1ccccc1 [Compound 2e]; -4.72
11) CCNC1=C(NC(=O)CC)C(=O)c2ccccc2C1=O [Compound 45]; -4.49
12) COC(=O)CCC(=O)NC1=C(NCc2ccccc2)C(=O)c2ccccc2C1=O [Compound 55]; -5.40
13) COC(=O)CCCC(=O)NC1=C(NCc2ccccc2)C(=O)c2ccccc2C1=O [Compound 51]; -4.64
14) CC(=O)NC1=C(NCC(C)C)C(=O)c2ccccc2C1=O [Compound 31]; -4.78
15) CCc1nc2c(n1CC)C(=O)c1ccccc1C2=O [Compound 23]; -4.73
16) CCn1c(-c2ccccc2)nc2c1C(=O)c1ccccc1C2=O [Compound 25]; -5.23
17) Cc1nc2c(n1CC(C)C)C(=O)c1ccccc1C2=O [Compound 7]; -4.60
18) CC(=O)NC1=C(NCC(C)(C)C)C(=O)c2ccccc2C1=O [Compound 38]; -4.26

Origin of measurements: patent US5789431A
